Test system: phospho-PLCγ1 in Jurkat cells
Protocol summary: ITK target modulation PLC-γ assay (phospho-PLCγ1, αCD3-stimulated Jurkat cells)
Format: cell-based, human
Setup conditions: Homo sapiens, 1 hour compound incubation, αCD3 Dynabeads stimulation 8 minutes, MSD phospho-PLCγ1, read-out: PLC-γ Inhibition IC50
pIC50: −log10 of the molar value.
Measurement name: pIC50

C=CC(=O)Nc1cccc(-c2cnc3[nH]cc(-c4cncc(Cl)c4)c3c2)c1: 5.30 to 6.00
C=CC(=O)Nc1cccc(-c2cnc3[nH]cc(-c4c[nH]c(=O)c5ccccc45)c3c2)c1: < 5.30
COc1cc(NC(=O)/C=C/CN(C)C)cc(-c2cnc3[nH]cc(-c4ccnc(OC)c4)c3c2)c1: > 6.00
C=CC(=O)Nc1cncc(-c2cnc3[nH]cc(-c4ccc(=O)n(C)c4)c3c2)c1: < 5.30
CN(C)C/C=C/C(=O)Nc1cccc(-c2cnc3[nH]cc(-c4cccc(C#N)c4)c3c2)c1: < 5.30
CN(C)C/C=C/C(=O)Nc1cccc(-c2cnc3[nH]cc(-c4ccc(=O)n(C)c4)c3c2)c1: < 5.30
C=CC(=O)Nc1cc(-c2cnc3[nH]cc(-c4ccc(OC)nc4)c3c2)cc(C(F)(F)F)c1: 5.30 to 6.00
C=CC(=O)Nc1cncc(-c2cnc3[nH]cc(-c4ccnc(C)c4)c3c2)c1: > 6.00

Summary: `N#C/C(=C\c1cccc(-c2cnc3[nH]cc(-c4ccncc4)c3c2)c1)C(N)=O` , phospho-PLCγ1 in Jurkat cells, pIC50 = 5.30 to 6.00

pIC50 on phospho-PLCγ1 in Jurkat cells for `C=CC(=O)Nc1cccc(-c2cnc3[nH]cc(-c4cc(C)nc(OC)c4)c3c2)c1` is 5.30 to 6.00

Summary line: `O=C(/C=C/CN1CCOCC1)Nc1cccc(-c2cnc3[nH]cc(-c4ccncc4)c3c2)c1` , phospho-PLCγ1 in Jurkat cells, reported pIC50 = 5.30 to 6.00

With phospho-PLCγ1 in Jurkat cells as the test system, `C=CC(=O)Nc1cccc(-c2cnc3[nH]cc(-c4ccc(C(=O)Nc5ccc(C(C)C)cc5)cc4)c3c2)c1` showed pIC50 of > 6.00

Reported phospho-PLCγ1 in Jurkat cells pIC50 for item `N#C/C(=C\c1cccc(-c2cnc3[nH]cc(-c4ccncn4)c3c2)c1)C(N)=O` was < 5.30

Lab entry: phospho-PLCγ1 in Jurkat cells assay, compound `COC/C=C/C(=O)Nc1cccc(-c2cnc3[nH]cc(-c4ccnc(OC)c4)c3c2)c1` , pIC50 = < 5.30

Entry `C=CC(=O)Nc1cccc(-c2cnc3[nH]cc(-c4cccc5ccccc45)c3c2)c1` , phospho-PLCγ1 in Jurkat cells data, pIC50 value: < 5.30

// assay phospho-PLCγ1 in Jurkat cells, entry `C=CC(=O)Nc1cc(-c2cnc3[nH]cc(-c4ccnc(OC)c4)c3c2)cc(C(F)(F)F)c1` , pIC50 value = > 6.00

###

Known IC50 of a selection of molecules
Tested on: phospho-PLCγ1 in Jurkat cells
Protocol summary: ITK target modulation PLC-γ assay (phospho-PLCγ1, αCD3-stimulated Jurkat cells)
Type: cell-based, human
Setup conditions: Homo sapiens, 1 hour compound incubation, αCD3 Dynabeads stimulation 8 minutes, MSD phospho-PLCγ1, read-out: PLC-γ Inhibition IC50

Worked cases, answers included:
C=CC(=O)Nc1cc(-c2cnc3[nH]cc(-c4ccnc(F)c4)c3c2)cc(C(F)(F)F)c1 [Example 61]: < 1000 nM
C=CC(=O)Nc1cc(-c2cnc3[nH]cc(-c4ccc(F)nc4)c3c2)cc(C(F)(F)F)c1 [Example 57]: < 1000 nM
C=CC(=O)Nc1cccc(-c2cnc3[nH]cc(-c4cc(C)cc(OC)n4)c3c2)c1 [Example 52]: > 5000 nM

Now take the following molecule into account.
Known value: phospho-PLCγ1 in Jurkat cells IC50 of the molecule C=CC(=O)Nc1cccc(-c2cnc3[nH]cc(-c4cc(OC)nc(C(F)(F)F)c4)c3c2)c1 [Example 31] equals > 5000 nM
